- system: UniProtKB P30838
- Sequence (P30838 1-453): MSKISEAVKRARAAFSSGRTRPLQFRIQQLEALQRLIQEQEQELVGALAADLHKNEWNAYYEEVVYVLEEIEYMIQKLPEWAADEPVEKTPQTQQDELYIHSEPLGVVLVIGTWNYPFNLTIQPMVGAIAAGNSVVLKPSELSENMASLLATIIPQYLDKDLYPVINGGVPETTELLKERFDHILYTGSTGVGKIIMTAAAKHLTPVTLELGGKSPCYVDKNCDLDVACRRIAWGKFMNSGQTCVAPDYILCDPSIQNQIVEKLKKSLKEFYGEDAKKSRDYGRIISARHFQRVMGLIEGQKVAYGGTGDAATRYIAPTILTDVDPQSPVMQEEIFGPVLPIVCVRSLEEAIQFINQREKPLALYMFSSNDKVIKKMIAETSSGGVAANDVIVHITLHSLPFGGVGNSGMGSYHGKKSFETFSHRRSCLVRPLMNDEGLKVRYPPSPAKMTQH
- assay procedure: ALDH3A1 biochemical assay (benzaldehyde/NADP+, diaphorase-resazurin readout, 1,536-well)
- condition summary: Table S2, in-house analogs; curve class
In this section we review reported CC-v2 values for a set of compounds.
Please respond with just the number, no unit label.

The following compounds have reported results that may help.
- compound: "Cc1cc(Cl)ccc1-n1nc(C)c([C@@H]2C=C[C@@H](NC(=O)c3ccc(N(C)C)cc3)C2)c1C [NCGC00394621-01]"
  system: "UniProtKB P30838"
  CC-v2: -1.1
- compound: "Cc1nn(-c2ccc(C(F)(F)F)cc2)c(C)c1[C@@H]1C=C[C@@H](NCc2ccc(N(C)C)cc2)C1 [NCGC00392637-01]"
  system: "UniProtKB P30838"
  CC-v2: -2.2
- compound: "CC(=O)Nc1cccc(-c2cc(C(=O)NCc3cnn(C)c3)c3c(c2)N(C)CCO3)c1 [NCGC00417085-01]"
  system: "UniProtKB P30838"
  CC-v2: -2.2

# input compound: COc1ccc(N2CCN(c3nc(C(=O)NCC4CCCCC4)cs3)CC2)cc1 [NCGC00430670-01] ; wanted: its CC-v2
-1.4

Okay, and Cc1ccc(-n2nc(C)c([C@@H]3C=C[C@@H](NCc4ccc(N(C)C)cc4)C3)c2C)cc1Cl [NCGC00395823-01] ?
-2.1

Okay, and COc1ccc(N2CCN(c3nc(C(=O)NCc4ccc(C)cc4)cs3)CC2)cc1 [NCGC00430668-01] ?
-1.2

Okay, and O=C(NC1CCCC1)c1csc(N2CCN(c3cccc(Cl)c3)CC2)n1 [NCGC00430704-01] ?
-2.4

Okay, and COc1cccc(N2CCN(c3nc(C(=O)NCc4ccccc4F)cs3)CC2)c1 [NCGC00430688-01] ?
-1.2

* * *

- system: OE19 (3A1) (Homo sapiens)
- assay procedure: Cellular ALDEFLUOR assay in OE19 cells (preferential ALDH3A1 expression)
- condition summary: Table S4, OE19 cells
measure name: Cell_Efficacy
Please respond with just the number, no unit label.

OE19 (3A1) (Homo sapiens) / Cell_Efficacy / COc1ccc(Cl)c(N2CCN(c3nc(C(=O)NCc4cccc(C)c4)cs3)CC2)c1 : value?
-102.69

* * *

- system: Human ALDH3A1 (Homo sapiens, UniProt P30838)
- assay procedure: ALDH3A1 biochemical assay (benzaldehyde/NADP+, diaphorase-resazurin readout, 1,536-well)
- condition summary: Table S5, biochemical
In this section we review reported Efficacy values for a set of compounds.

Human ALDH3A1 (Homo sapiens, UniProt P30838) / Efficacy / CC(C)(C)c1cccc(CNC(=O)c2csc(N3CCN(c4cccc(C(F)(F)F)c4)CC3)n2)c1 : value?
-37.12

Okay, and O=C(NC1CC1)c1ccc(CNC(=O)c2csc(N3CCN(c4cccc(C(F)(F)F)c4)CC3)n2)cc1 ?
-41.09

Okay, and C[S+](=O)([O-])c1cccc(CNC(=O)c2csc(N3CCN(c4cccc(C(F)(F)F)c4)CC3)n2)c1 ?
-53.81

Okay, and Cc1cc(CNC(=O)c2csc(N3CCN(c4cccc(C(F)(F)F)c4)CC3)n2)cc(C)c1Br ?
-29.26

Okay, and O=C(NCc1ccc2c(c1)COC2=O)c1csc(N2CCN(c3cccc(C(F)(F)F)c3)CC2)n1 ?
-98.89

Okay, and C[S+](=O)([O-])c1ccc(CNC(=O)c2csc(N3CCN(c4cccc(C(F)(F)F)c4)CC3)n2)cc1 ?
-62.88

Okay, and O=C(NCCc1cccc(OCCCc2ccccc2)c1)c1csc(N2CCN(c3cccc(C(F)(F)F)c3)CC2)n1 ?
-31.39

* * *

- system: OE19 (3A1) (Homo sapiens)
- Sequence (P30838 1-453): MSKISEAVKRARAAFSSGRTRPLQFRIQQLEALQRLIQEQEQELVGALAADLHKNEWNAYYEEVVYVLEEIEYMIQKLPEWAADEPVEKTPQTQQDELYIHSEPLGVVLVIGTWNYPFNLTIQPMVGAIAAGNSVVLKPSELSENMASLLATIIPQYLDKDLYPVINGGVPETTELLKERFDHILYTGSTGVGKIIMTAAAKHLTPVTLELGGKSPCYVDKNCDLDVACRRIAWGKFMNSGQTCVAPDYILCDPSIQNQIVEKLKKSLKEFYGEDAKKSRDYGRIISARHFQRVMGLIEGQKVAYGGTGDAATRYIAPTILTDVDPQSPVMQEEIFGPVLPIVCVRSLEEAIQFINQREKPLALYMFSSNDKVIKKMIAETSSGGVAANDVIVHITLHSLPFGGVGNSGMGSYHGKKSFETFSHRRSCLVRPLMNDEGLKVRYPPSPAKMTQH
- assay procedure: Cellular ALDEFLUOR assay in OE19 cells (preferential ALDH3A1 expression)
- condition summary: Table S4, cellular curve class
measure name: Cell_CC-v2

- smi: "Cc1cccc(CNC(=O)c2csc(N3CCN(c4ncccc4C(F)(F)F)CC3)n2)c1"
  Cell_CC-v2: -2.2
- smi: "Cc1cccc(CNC(=O)c2csc(N3CCN(c4ccc(C(N)=O)cc4)CC3)n2)c1"
  Cell_CC-v2: -1.2

OE19 (3A1) (Homo sapiens) / Cell_CC-v2 / COc1ccc(N2CCN(c3nc(C(=O)NCc4cccc(C)c4)cs3)CC2)cc1O : value?
-2.3

Okay, and Cc1cccc(CNC(=O)c2csc(N3CCN(c4c(Cl)cccc4Cl)CC3)n2)c1 ?
-1.4

Okay, and Cc1cccc(CNC(=O)c2csc(N3CCN(c4cccc(OCc5ccc(Cl)cc5)c4)CC3)n2)c1 ?
-1.1

* * *

- system: OE19 (3A1) (Homo sapiens, UniProt P30838)
- assay procedure: Cellular ALDEFLUOR assay in OE19 cells (preferential ALDH3A1 expression)
Strictly below 2000 nM in AC50: label 1. Otherwise: label 0.

Answered examples (7):
- smi: "COc1cc(C)cc(CNC(=O)c2csc(N3CCN(c4cccc(C(F)(F)F)c4)CC3)n2)c1"
  assigned label: "label 1"
- smi: "COc1c(F)cc(N2CCN(c3nc(C(=O)NCc4cccc(C)c4)cs3)CC2)cc1F"
  assigned label: "label 1"
- smi: "C[S+](=O)([O-])c1cccc(CNC(=O)c2csc(N3CCN(c4cccc(C(F)(F)F)c4)CC3)n2)c1"
  assigned label: "label 1"
- smi: "COc1cc(N2CCN(c3nc(C(=O)NCc4cccc(C)c4)cs3)CC2)cc(OC)c1OC"
  assigned label: "label 0"
- smi: "Cc1cccc(CNC(=O)c2csc(N3CCN(c4cccc(Br)c4)CC3)n2)c1"
  assigned label: "label 1"
- smi: "Cc1cccc(CNC(=O)c2csc(N3CCN(c4cccc([S+](=O)([O-])C(F)(F)F)c4)CC3)n2)c1"
  assigned label: "label 0"
- smi: "NC(=O)c1csc(N2CCN(c3cccc(C(F)(F)F)c3)CC2)n1"
  assigned label: "label 0"

Now for another entry.
Given the entry CC1(C)Oc2ccc(CNC(=O)c3csc(N4CCN(c5cccc(C(F)(F)F)c5)CC4)n3)cc2O1 , would its reported AC50 be below 2000 nM?
label 1

* * *

- system: UniProt P30838
- assay procedure: ALDH3A1 biochemical assay (benzaldehyde/NADP+, diaphorase-resazurin readout, 1,536-well)
In this section we review reported AC50 values for a set of compounds.
Report the figure in µM without appending any unit label.

The following compounds have reported results that may help.
- smi: "CC(C)(C)c1cccc(CNC(=O)c2csc(N3CCN(c4cccc(C(F)(F)F)c4)CC3)n2)c1"
  AC50 (µM): 0.447
- smi: "CN1CCOc2c(C(=O)NCCC(N)=O)cc(-c3ccccc3O)cc21"
  AC50 (µM): 0.63
- smi: "Cc1nn(-c2ccc(C(C)C)cc2)c(C)c1[C@@H]1C=C[C@@H](NCc2ccc(F)cc2)C1"
  AC50 (µM): 12.6

# input for lookup
# input compound: COc1cccc(N2CCN(c3nc(C(=O)NCc4ccncc4)cs3)CC2)c1 ; wanted: its AC50
12.6
